Biological target: hGcgR (Homo sapiens)
Sequence (P47871 26-477): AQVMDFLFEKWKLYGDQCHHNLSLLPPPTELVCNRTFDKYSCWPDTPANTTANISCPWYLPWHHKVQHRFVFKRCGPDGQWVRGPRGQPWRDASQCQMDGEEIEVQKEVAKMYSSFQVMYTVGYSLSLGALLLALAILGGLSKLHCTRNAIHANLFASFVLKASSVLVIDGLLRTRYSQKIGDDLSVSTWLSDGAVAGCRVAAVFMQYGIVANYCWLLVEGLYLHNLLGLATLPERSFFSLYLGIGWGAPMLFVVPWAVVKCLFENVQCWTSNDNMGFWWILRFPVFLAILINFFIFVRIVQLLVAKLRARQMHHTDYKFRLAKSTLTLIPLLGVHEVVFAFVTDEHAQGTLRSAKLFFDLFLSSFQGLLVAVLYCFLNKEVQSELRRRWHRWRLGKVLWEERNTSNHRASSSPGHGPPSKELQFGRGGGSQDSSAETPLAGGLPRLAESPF
Assay: Functional cAMP activation in the presence of 0.1% casein (no HSA);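 further: intracellular cAMP rise after 30 min at 37 °C, read by HTRF against a cAMP standard curve, scaled from buffer only (0%) to maximal control ligand response (100%)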
Assay type: cell-based
Conditions: read-out: Relative cAMP EC50, hGcgR
Starred links: 1 amine or outer side, 2 acyl side, 3 side chain; linkers in the order of their positions; H or OH if unused. Non-standard residues stand in square brackets, D forms with d. Groups on a side chain read outwards from the residue. No end group written: not given here. *: point of attachment. C18 diacid = O=C(O)CCCCCCCCCCCCCCCCC(=O)*; αMePhe(2-F) = C[C@](N)(Cc1ccccc1F)C(=O)O; γGlu = O=C(O)[C@H](CCC(=O)[*:2])N[*:1]; αMe4Pal = C[C@](N)(Cc1ccncc1)C(=O)O; αMeY = C[C@](N)(Cc1ccc(O)cc1)C(=O)O; 4Pal = N[C@@H](Cc1ccncc1)C(=O)O; Aad = N[C@@H](CCCC(=O)O)C(=O)O; αMeL = CC(C)C[C@](C)(N)C(=O)O; αMeS = C[C@](N)(CO)C(=O)O; Orn = NCCC[C@H](N)C(=O)O; AEEA = NCCOCCOCC(=O)O; Aib = CC(C)(N)C(=O)O
measurement_name: pEC50
On this scale, pEC50 is minus log10 of a concentration expressed in M (mol/L).

Worked cases, answers included:
substance	pEC50
H-Y[Aib]QGT[αMePhe(2-F)]TSD[4Pal]SI[αMeL]LD[Orn]K([AEEA-γGlu-C18 diacid])AQ[αMe4Pal][Orn]FI[dE][αMeY]LIEGGPSSGDPPPETE-NH2 [Example 730]	8.61
H-Y[Aib]QGT[αMePhe(2-F)]TSD[4Pal][αMeS]ILLD[Orn]K([γGlu-γGlu-C18 diacid])AQ[Aib][Orn]FI[dE]YLIEGGPSSGEPPPEGAEE-NH2 [Example 604]	8.26
H-Y[Aib]QGT[αMePhe(2-F)]TSD[4Pal][αMeS]I[αMeL]LD[Orn]K([AEEA-γGlu-C18 diacid])AQ[Aib][Orn]FIEYLIEAGPSSGEPPPEEG-NH2 [Example 484]	8.40
H-Y[Aib]QGT[αMePhe(2-F)]TSD[4Pal]SILLDKK([AEEA-γGlu-C18 diacid])AQ[Aib]AFIEYL[Aad]EGGPSSGAPPPSGTGE-NH2 [Example 663]	8.71
H-Y[Aib]QGT[αMePhe(2-F)]TSD[4Pal][αMeS]I[αMeL]LD[Orn]K([γGlu-γGlu-C18 diacid])AQ[Aib][Orn]FI[dE]YLIEGGPSSGEPPPSGTGE-NH2 [Example 523]	8.42

The recorded pEC50 for entry H-Y[Aib]QGT[αMePhe(2-F)]TSD[4Pal][αMeS]I[αMeL]LD[Orn]K([γGlu-γGlu-C18 diacid])AQ[αMe4Pal]EFI[dE][αMeY]LVEGGPSSGEPPPSGTGE-NH2 [Example 738] equals 8.73

pEC50 reading for H-Y[Aib]QGT[αMePhe(2-F)]TSD[4Pal]SI[αMeL]LD[Orn]K([AEEA-γGlu-C18 diacid])AQ[αMe4Pal]EFI[dE][αMeY]LLEGGPSSGAPPPSGE-NH2 [Example 615] : 8.41

Per the records, this substance ( H-Y[Aib]QGT[αMePhe(2-F)]TSD[4Pal][αMeS]I[αMeL]LD[Orn]K([γGlu-γGlu-C18 diacid])AQ[Aib][Orn]FI[dE][αMeY]LTEGGPSSGEPPPEGTEEE-NH2 [Example 598] ) has pEC50 equal to 8.06

The substance H-Y[Aib]QGT[αMePhe(2-F)]TSD[4Pal]SI[αMeL]LDKK([γGlu-γGlu-C18 diacid])AQ[Aib]AFIEYLEEGGPSSGAPPPSGEGE-NH2 [Example 623] showed pEC50 equal to 8.10

In plain terms, Y[Aib]QGT[αMePhe(2-F)]TSD[4Pal]SI[αMeL]LD[Orn]K([AEEA-γGlu-C18 diacid])AQ[αMe4Pal][Orn]FI[dE][αMeY]LIEGGPSSGEPPPEGGGE-NH2 [Example 757] has a documented pEC50 of 8.63
